Values were extracted from patent US12611406B2.

test: 14-day daily oral repeated-dose exploratory study in CD-1 mice (mesylate salt); assay type: in vivo; details: male, CD-1, mouse, in vivo, po, 10 mg/kg, M, Day 1
readout-label: AUC(0-t) (ng·h/mL)
The reply should contain only the number, in ng·h/mL.

Input CC(C)C[C@@H]1NCCN([C@@H](CC(C)C)C(=O)N2CCC3(C[C@@H]2C)OCC(CN2CCCC2)CO3)C1=O (stereo partly shown) . Output AUC(0-t): 361

###

test: Single dose intravenous and oral PK in Beagle dogs (citrate salt); assay type: in vivo; parameters: unit not given here; conditions: both sexes, Beagle, dog, whole blood; IV 1 mg/kg
readout-label: AUC(0-t)
Simply state the number, no unit and no words.

Input CC(C)C[C@@H]1NCCN([C@@H](CC(C)C)C(=O)N2CCC3(C[C@@H]2C)OCC(CN2CCCC2)CO3)C1=O (stereo partly shown) . Output AUC(0-t): 0.063
